Recorded normalized growth by entry
Experiment: chemical genetic growth profiling, strain panel (AID 1159580);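 also: tested at 20 µM; growth read once vehicle control cultures reached saturation at 30 °C; 1 = growth at the plate median or of vehicle wells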
Details: S. cerevisiae deletion strains, growth OD, locus YDR162C, strain NBP2, hits give low values
Out of some 5,500 compounds screened, about 2,000 (36%) were called active. Not shown: some 18% with an inconclusive outcome. This is one part of the list.

Example compounds with recorded normalized growth:
compound=COc1ccc2cc([C@H](C)CO)ccc2c1 observationtype="normalized growth" valueobserved="0.961 (inactive)"
compound="COc1cc(NC(C)CCCN)c2ncccc2c1 (configuration not stated)" observationtype="normalized growth" valueobserved="1.01 (inactive)"

-- ask Requested field: normalized growth. Item: "COc1ccc2c(c1OC)C(=O)O[C@H]2[C@H]1c2cc3c(cc2CCN1C)OCO3"
-- reply 0.966 (inactive)

-- ask Requested field: normalized growth. Item: "Cc1cc(O)c(C=O)c(O)c1C(=O)O"
-- reply 1.02 (inactive)

-- ask Requested field: normalized growth. Item: CC1(C)C(C=C(Cl)Cl)C1C(=O)OC(C#N)c1cccc(Oc2ccccc2)c1 (configuration not stated)
-- reply 1.02 (inactive)

-- ask Requested field: normalized growth. Item: OCCN1C[C@@H](O)[C@@H](O)C(O)C1CO (some centres not stated)
-- reply 1.01 (inactive)

-- ask Requested field: normalized growth. Item: "CN1CCC(=C2c3ccccc3Sc3ccccc32)CC1"
-- reply 1.01 (inactive)

-- ask Requested field: normalized growth. Item: CC(C(=O)O)c1ccc(-c2ccccc2)c(F)c1 (configuration not stated)
-- reply 0.936 (inactive)

-- ask Requested field: normalized growth. Item: COc1ccc(OC)c(C(O)C(C)N)c1 (configuration not stated)
-- reply 1.05 (inactive)

-- ask Requested field: normalized growth. Item: C[C@H]1OC(n2cc(F)c(=O)[nH]c2=O)C(O)[C@@H]1O (some centres not stated)
-- reply 1.04 (inactive)

-- ask Requested field: normalized growth. Item: "CN1CCC(=C2c3ccccc3CC(=O)c3sccc32)CC1"
-- reply 1.01 (inactive)

-- ask Requested field: normalized growth. Item: CC1=C(CC(=O)O)c2cc(F)ccc2/C1=C\c1ccc(S(C)=O)cc1 (configuration not stated)
-- reply 1.01 (inactive)

----------
Experiment: chemical genetic growth profiling, strain panel (AID 1159580)
Details: S. cerevisiae deletion strains, growth OD, locus YHR079C, strain IRE1, hits give low values
The whole screen tested about 5,500 compounds, of which about 2,000 (36%) were called active. Inconclusive results (about 18%) are left out. This is one part of the list.
With a cut-off of 1, any normalized growth strictly below it is called criterion met; any normalized growth meeting it or above is called criterion not met.

Reference set (3 entries):
compound="COc1ccc(OC)c(C(O)C(C)N)c1 (centres undefined)" group="criterion not met"
compound="CSC1=NNC(c2nn(C)cc2Cl)S1 (centres undefined)" group="criterion met"
compound="CC(C(=O)O)c1cccc(Oc2ccccc2)c1 (centres undefined)" group="criterion met"

-- ask Report whether reported normalized growth is lower than 1 (strictly) for CC(C(=O)O)c1cccc(C(=O)c2ccccc2)c1 (centres undefined)
-- reply criterion not met

-- ask Report whether reported normalized growth is lower than 1 (strictly) for CC(C(=O)O)c1ccc(-c2ccccc2)c(F)c1 (centres undefined)
-- reply criterion met

----------
Recorded normalized growth by entry
Assay: chemical genetic growth profiling, strain panel (AID 1159580)
Conditions: S. cerevisiae deletion strains, growth OD, locus YHR079C, strain IRE1, hits give low values
The whole screen tested about 5,500 compounds, of which about 2,000 (36%) were called active. Another 18% or so got no clear call; they are omitted. This is one part of the list.
Form rule: numeric answer, no unit written next to it.

molecule="NC(=O)C(c1ccccc1)(c1ccccc1)C1CCN(CCc2ccc3c(c2)CCO3)C1 (stereo unspecified)" valueobserved=1.05
molecule="O=C(O)C1(O)C[C@@H](O)C(O)[C@H](O)C1 (stereo partly specified)" valueobserved=1
molecule="CC(Oc1ccccc1)C(=O)N[C@@H]1C(=O)N2[C@@H]1SC(C)(C)[C@@H]2C(=O)O (stereo partly specified)" valueobserved=0.999
molecule="CCCCCCCCNC(C)C(O)c1ccc(SC(C)C)cc1 (stereo unspecified)" valueobserved=0.911

Alright, here's another molecule for you.
-- ask Requested field: normalized growth. Item: "COc1ccc2c(c1)O[C@@H]1COc3cc(OC)c(OC)cc3[C@@H]1C2=O"
-- reply 0.97

----------
Test: chemical genetic growth profiling, strain panel (AID 1159580)
Details: S. cerevisiae deletion strains, growth OD, locus YNL298W, strain CLA4 (second series)
The whole screen tested about 5,500 compounds, of which about 2,000 (36%) were called active. Roughly 18% stayed inconclusive and do not appear here. Cut-off read from the data, not from the text of the source: active = normalized growth mostly below about 0.91 (no sharp cut-off); inconclusive = no clear call, values can overlap the other calls; inactive = mostly above about 0.92. The list shows a part of the results.
Your response should consist of one outcome taken from label 1 = active, label 0 = inactive

-- ask Would you mind telling me which call this test gave "COc1ccc(OC)c(S(=O)(=O)Oc2ccc(C#N)cc2)c1" ?
-- reply label 0

----------
Recorded normalized growth by entry
Assay: chemical genetic growth profiling, strain panel (AID 1159580)
Conditions: S. cerevisiae deletion strains, growth OD, locus YMR219W, strain ESC1, hits give low values
The campaign covered roughly 5,500 compounds. About 2,000 (36%) were called active. About 18% were inconclusive and are not listed. Some of the results follow.
Form rule: numeric answer, no unit written next to it.

Example compounds with recorded normalized growth:
compound=CCOC(=O)C(=CNNC(=O)c1ccccc1-n1cccc1)C(=O)OCC valueobserved=1.01
compound=CCOC(=O)c1[nH]c(Cc2[nH]c(C(=O)OCC)c(C)c2C)c(C)c1C valueobserved=1.01
compound=CC(C)(C)c1cc(-c2csc(-c3ccc(Cl)cc3)n2)cc(C(C)(C)C)c1O valueobserved=1.01
compound=c1ccc(N=Nc2ccc(Nc3ccccc3)cc2)cc1 valueobserved=0.92
compound=CCO/C=C1\SC(=S)N(CCc2ccccc2)C1=O valueobserved=0.906
compound=O=C(CSc1nnnn1-c1ccccc1)NC1Cc2ccccc2C1 valueobserved=0.996
compound=Cc1ccc(NC(=S)NNC(C)(C)C)cc1 valueobserved=1.01
compound=CCOc1ccc(/C=C(\C#N)c2cccc(Cl)c2)cc1 valueobserved=0.99
compound=CSc1nnnn1-c1c(C)cccc1C valueobserved=0.983
compound=CCOC(=O)C(=CNc1ccccc1N1CCOCC1)C(=O)OCC valueobserved=0.981

Alright, here's another compound for you.
-- ask Requested field: normalized growth. Item: COc1ccc(CN2C(=O)CSC2c2ccccn2)cc1 (stereo unspecified)
-- reply 0.993

----------
Assay: chemical genetic growth profiling, strain panel (AID 1159580);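 also: tested at 20 µM; growth read once vehicle control cultures reached saturation at 30 °C; 1 = growth at the plate median or of vehicle wells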
Conditions: S. cerevisiae deletion strains, growth OD, locus YNL175C, strain NOP13, hits give low values
About 2,000 (36%) of roughly 5,500 compounds were called active. Not shown: some 18% with an inconclusive outcome. Some of the results follow.
With a cut-off of 1, any normalized growth strictly below it is called criterion met; any normalized growth meeting it or above is called criterion not met.

compound="O=C1O/C(=C/Br)CCC1c1cccc2ccccc12 (stereo not given)" group="criterion met"
compound=O=C(O)c1nn(Cc2ccc(Cl)cc2Cl)c2ccccc12 group="criterion met"
compound="CCN(CC)CC#CCOC(=O)C(O)(c1ccccc1)C1CCCCC1 (stereo not given)" group="criterion not met"
compound=Clc1ccc(N2CCN(Cc3c[nH]c4ncccc34)CC2)cc1 group="criterion met"

Please find the next compound below.
-- ask Report whether reported normalized growth is lower than 1 (strictly) for "Nc1c(S(=O)(=O)O)cc(Nc2ccc(Nc3nc(Cl)nc(Nc4ccc(S(=O)(=O)O)cc4)n3)c(S(=O)(=O)O)c2)c2c1C(=O)c1ccccc1C2=O"
-- reply criterion not met

----------
Experiment: chemical genetic growth profiling, strain panel (AID 1159580);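 also: tested at 20 µM; growth read once vehicle control cultures reached saturation at 30 °C; 1 = growth at the plate median or of vehicle wells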
Settings: S. cerevisiae deletion strains, growth OD, locus YCL069W, strain vba3, hits give low values
Among all 5,500 compounds or so, about 2,000 (36%) were called active. Inconclusive results (about 18%) are left out. This is one part of the list.
observationType: normalized growth
Form rule: numeric answer, no unit written next to it.

compound="CN1CCc2cc3c(cc2[C@H]1C1OC(=O)c2c1ccc1c2OCO1)OCO3 (stereo not given in full)" valueobserved=0.986

-- ask Requested field: normalized growth. Item: "COc1cc2c(cc1OC)C(=O)OC2"
-- reply 1

----------
Assay: chemical genetic growth profiling, strain panel (AID 1159580);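 also: tested at 20 µM; growth read once vehicle control cultures reached saturation at 30 °C; 1 = growth at the plate median or of vehicle wells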
Conditions: S. cerevisiae deletion strains, growth OD, locus YER155C, strain BEM2
In all, about 5,500 compounds went through this assay and about 2,000 (36%) were called active. Not shown: some 18% with an inconclusive outcome. No stated cut-off is given here; in the data, active means normalized growth mostly below about 0.91 (no sharp cut-off); inconclusive means no clear call, values can overlap the other calls; inactive means mostly above about 0.92. The list shows a part of the results.
Your response should consist of one outcome taken from active, inactive

-- ask Would you mind telling me which call this test gave C[C@H]1OC(n2cc(F)c(=O)[nH]c2=O)C(O)[C@@H]1O (stereo not given in full) ?
-- reply inactive

-- ask Would you mind telling me which call this test gave "COc1ccc2c3c1O[C@H]1C[C@@H](O)C=C[C@@]31CCN(C)C2" ?
-- reply inactive
